test protocol: Phase 1/2 clinical study, plasma pharmacokinetic evaluation
Assay type: in vivo, human
protocol conditions: human, plasma, oral, 100 mg, Table 15 cut-off; 100 mg BID Arm A, Cycle 2 Day 1, N=1
Protocol: In the present test of the present compound, PK samples have been collected in up to 24 patients dosed in dose groups of 40, 80, 100, and 120 mg BID Arm A, and in dose groups of 40 and 60 mg BID Arm B (Table 6). Large preliminary PK inter-patient variability was observed. (1) In the present study, PK samples have been collected in up to 42 patients dosed in dose groups of 40, 80, 100, 120, 140 and 200 mg BID Arm A, and in dose groups of 40, 60, 100, and 200 mg BID Arm B (Table 15). […]
measured attribute: Cmax (ng/mL)

• C=C1C[C@@H]2CC[C@H]1[C@@H](C(=O)N1CCC3(CC1)CN(c1ncncc1Oc1ccc(F)cc1C(=O)N(C(C)C)C(C)C)C3)N2 = 2840

###

test protocol: Phase 1/2 clinical study, plasma pharmacokinetic evaluation
Format: in vivo, human
protocol conditions: human, plasma, oral, 200 mg, 200 mg BID Arm A, Cycle 1 Day 1, N=4, mean
measured attribute: Cmax (ng/mL)

• C=C1C[C@@H]2CC[C@H]1[C@@H](C(=O)N1CCC3(CC1)CN(c1ncncc1Oc1ccc(F)cc1C(=O)N(C(C)C)C(C)C)C3)N2 = 3850

###

test protocol: Phase 1/2 clinical study, plasma pharmacokinetic evaluation
Format: in vivo, human
protocol conditions: human, plasma, oral, 80 mg, 80 mg BID Arm A, C2D1, N=2, mean
measured attribute: Tmax (min)

- C=C1C[C@@H]2CC[C@H]1[C@@H](C(=O)N1CCC3(CC1)CN(c1ncncc1Oc1ccc(F)cc1C(=O)N(C(C)C)C(C)C)C3)N2 [the present compound]: 45

###

test protocol: Phase 1/2 clinical study, plasma pharmacokinetic evaluation
Type: in vivo, human
protocol conditions: human, plasma, oral, 80 mg, Table 15 cut-off; 80 mg BID Arm A, Cycle 1 Day 1, N=4, mean
measured attribute: AUC(0-t)

• C=C1C[C@@H]2CC[C@H]1[C@@H](C(=O)N1CCC3(CC1)CN(c1ncncc1Oc1ccc(F)cc1C(=O)N(C(C)C)C(C)C)C3)N2 [the present compound] = 5110 ng·h/mL

###

test protocol: Phase 1/2 clinical study, plasma pharmacokinetic evaluation
Type: in vivo, human
protocol conditions: human, plasma, oral, 100 mg, 100 mg BID Arm A, C1D1, N=2, mean
measured attribute: Cmax (ng/mL)

• C=C1C[C@@H]2CC[C@H]1[C@@H](C(=O)N1CCC3(CC1)CN(c1ncncc1Oc1ccc(F)cc1C(=O)N(C(C)C)C(C)C)C3)N2 = 1380

###

test protocol: Phase 1/2 clinical study, plasma pharmacokinetic evaluation
Format: in vivo, human
protocol conditions: human, plasma, oral, 200 mg, 200 mg BID Arm B, Cycle 1 Day 1, N=6, mean
measured attribute: Cmax (ng/mL)

• C=C1C[C@@H]2CC[C@H]1[C@@H](C(=O)N1CCC3(CC1)CN(c1ncncc1Oc1ccc(F)cc1C(=O)N(C(C)C)C(C)C)C3)N2 = 6260

###

test protocol: Phase 1/2 clinical study, plasma pharmacokinetic evaluation
Assay type: in vivo, human
protocol conditions: human, plasma, oral, 120 mg, Table 15 cut-off; 120 mg BID Arm A, Cycle 1 Day 1, N=6, mean
Method: In the present test of the present compound, PK samples have been collected in up to 24 patients dosed in dose groups of 40, 80, 100, and 120 mg BID Arm A, and in dose groups of 40 and 60 mg BID Arm B (Table 6). Large preliminary PK inter-patient variability was observed. (1) In the present study, PK samples have been collected in up to 42 patients dosed in dose groups of 40, 80, 100, 120, 140 and 200 mg BID Arm A, and in dose groups of 40, 60, 100, and 200 mg BID Arm B (Table 15). […]
measured attribute: AUC(0-t)

* C=C1C[C@@H]2CC[C@H]1[C@@H](C(=O)N1CCC3(CC1)CN(c1ncncc1Oc1ccc(F)cc1C(=O)N(C(C)C)C(C)C)C3)N2 | 6290 ng·h/mL

###

test protocol: Phase 1/2 clinical study, plasma pharmacokinetic evaluation
Assay type: in vivo, human
protocol conditions: human, plasma, oral, 40 mg, Table 15 cut-off; 40 mg BID Arm B, Cycle 1 Day 1, N=4, mean
measured attribute: AUC(0-t) (ng·h/mL)

- C=C1C[C@@H]2CC[C@H]1[C@@H](C(=O)N1CCC3(CC1)CN(c1ncncc1Oc1ccc(F)cc1C(=O)N(C(C)C)C(C)C)C3)N2: 3270

###

test protocol: Phase 1/2 clinical study, plasma pharmacokinetic evaluation
Format: in vivo, human
protocol conditions: human, plasma, oral, 140 mg, Cycle 2 Day 1; 140 mg BID Arm A (without azole); N=5 (two MDS patients included, one pt excluded); mean
measured attribute: Cmax (ng/mL)

- C=C1C[C@@H]2CC[C@H]1[C@@H](C(=O)N1CCC3(CC1)CN(c1ncncc1Oc1ccc(F)cc1C(=O)N(C(C)C)C(C)C)C3)N2: 1670

###

test protocol: Phase 1/2 clinical study, plasma pharmacokinetic evaluation
Format: in vivo, human
protocol conditions: human, plasma, oral, 100 mg, 100 mg BID Arm B, Cycle 2 Day 1, N=4, mean
measured attribute: Cmax (ng/mL)

- C=C1C[C@@H]2CC[C@H]1[C@@H](C(=O)N1CCC3(CC1)CN(c1ncncc1Oc1ccc(F)cc1C(=O)N(C(C)C)C(C)C)C3)N2 [the present compound]: 1810

###

test protocol: Phase 1/2 clinical study, plasma pharmacokinetic evaluation
Type: in vivo, human
protocol conditions: human, plasma, oral, 140 mg, 140 mg BID Arm A, Cycle 2 Day 1, N=5 (incl. two patients with MDS), mean
measured attribute: AUC(0-t) (ng·h/mL)

* C=C1C[C@@H]2CC[C@H]1[C@@H](C(=O)N1CCC3(CC1)CN(c1ncncc1Oc1ccc(F)cc1C(=O)N(C(C)C)C(C)C)C3)N2 | 4200

###

test protocol: Phase 1/2 clinical study, plasma pharmacokinetic evaluation
Type: in vivo, human
protocol conditions: human, plasma, oral, 80 mg, Cycle 1 Day 1; 80 mg BID Arm A (without azole); N=4; mean
Protocol: In the present test of the present compound, PK samples have been collected in up to 24 patients dosed in dose groups of 40, 80, 100, and 120 mg BID Arm A, and in dose groups of 40 and 60 mg BID Arm B (Table 6). Large preliminary PK inter-patient variability was observed. (1) In the present study, PK samples have been collected in up to 42 patients dosed in dose groups of 40, 80, 100, 120, 140 and 200 mg BID Arm A, and in dose groups of 40, 60, 100, and 200 mg BID Arm B (Table 15). […]
measured attribute: Cmax

- C=C1C[C@@H]2CC[C@H]1[C@@H](C(=O)N1CCC3(CC1)CN(c1ncncc1Oc1ccc(F)cc1C(=O)N(C(C)C)C(C)C)C3)N2: 1620 ng/mL

###

test protocol: Phase 1/2 clinical study, plasma pharmacokinetic evaluation
Format: in vivo, human
protocol conditions: human, plasma, oral, 40 mg, Table 15 cut-off; 40 mg BID Arm A, Cycle 1 Day 1, N=2, mean
measured attribute: AUC(0-t) (ng·h/mL)

- C=C1C[C@@H]2CC[C@H]1[C@@H](C(=O)N1CCC3(CC1)CN(c1ncncc1Oc1ccc(F)cc1C(=O)N(C(C)C)C(C)C)C3)N2 [the present compound]: 3960

###

test protocol: Phase 1/2 clinical study, plasma pharmacokinetic evaluation
Assay type: in vivo, human
protocol conditions: human, plasma, oral, 100 mg, Cycle 1 Day 1; 100 mg BID Arm B (with azole); N=4; mean
measured attribute: AUC(0-t) (ng·h/mL)

- C=C1C[C@@H]2CC[C@H]1[C@@H](C(=O)N1CCC3(CC1)CN(c1ncncc1Oc1ccc(F)cc1C(=O)N(C(C)C)C(C)C)C3)N2 [the present compound]: 5600

###

test protocol: Phase 1/2 clinical study, plasma pharmacokinetic evaluation
Type: in vivo, human
protocol conditions: human, plasma, oral, 80 mg, 80 mg BID Arm A, C2D1, N=2, mean
measured attribute: Cmax (ng/mL)

* C=C1C[C@@H]2CC[C@H]1[C@@H](C(=O)N1CCC3(CC1)CN(c1ncncc1Oc1ccc(F)cc1C(=O)N(C(C)C)C(C)C)C3)N2 | 1400

###

test protocol: Phase 1/2 clinical study, plasma pharmacokinetic evaluation
Assay type: in vivo, human
protocol conditions: human, plasma, oral, 200 mg, 200 mg BID Arm B, Cycle 2 Day 1, N=2, mean
measured attribute: AUC(0-t) (ng·h/mL)

• C=C1C[C@@H]2CC[C@H]1[C@@H](C(=O)N1CCC3(CC1)CN(c1ncncc1Oc1ccc(F)cc1C(=O)N(C(C)C)C(C)C)C3)N2 [the present compound] = 16700
